# MEASUREMENT_NOTES: clinical
# MEASUREMENT_CONDITIONS: both, human, plasma, po, 50 mg
OBSERVED_PROPERTY: half-life (h)
Dear colleague, please return just the value in h, with no unit written.

For the compound shown here, N#Cc1ccc([C@H]2CCc3cncn32)c(F)c1 , give the reported half-life.
4.73

====

Listing of recorded CL/F by entry.
# MEASUREMENT_CONDITIONS: substrate alone; geometric mean (CV%)

Record excerpt, results attached:
COMPOUND	CL/F
Cc1ncc2n1-c1ccc(Cl)cc1C(c1ccccc1F)=NC2 [Midazolam, midazolam]	91.0 (39.6) L/h
COc1ccc2c(c1)[C@]13CCCC[C@@H]1[C@H](C2)N(C)CC3 [Dextromethorphan, dextromethorphan]	1310 (193.8) L/h
Cn1c(=O)c2c(ncn2C)n(C)c1=O [Caffeine, caffeine]	6.18 (44.8) L/h

// next item, CL/F requested
For the compound shown here, COc1ccc2[nH]c([S+]([O-])Cc3ncc(C)c(OC)c3C)nc2c1 (stereo not shown) [Omeprazole, omeprazole] , give the reported CL/F.
32.3 (92.9) L/h
